Data origin, for the record: patent US20220220155A1

target system: SMase-treated LDL (Homo sapiens)
Construct: from tissue; host or cells: pooled normolipemic human plasma
Sequence (P04114 28-4563): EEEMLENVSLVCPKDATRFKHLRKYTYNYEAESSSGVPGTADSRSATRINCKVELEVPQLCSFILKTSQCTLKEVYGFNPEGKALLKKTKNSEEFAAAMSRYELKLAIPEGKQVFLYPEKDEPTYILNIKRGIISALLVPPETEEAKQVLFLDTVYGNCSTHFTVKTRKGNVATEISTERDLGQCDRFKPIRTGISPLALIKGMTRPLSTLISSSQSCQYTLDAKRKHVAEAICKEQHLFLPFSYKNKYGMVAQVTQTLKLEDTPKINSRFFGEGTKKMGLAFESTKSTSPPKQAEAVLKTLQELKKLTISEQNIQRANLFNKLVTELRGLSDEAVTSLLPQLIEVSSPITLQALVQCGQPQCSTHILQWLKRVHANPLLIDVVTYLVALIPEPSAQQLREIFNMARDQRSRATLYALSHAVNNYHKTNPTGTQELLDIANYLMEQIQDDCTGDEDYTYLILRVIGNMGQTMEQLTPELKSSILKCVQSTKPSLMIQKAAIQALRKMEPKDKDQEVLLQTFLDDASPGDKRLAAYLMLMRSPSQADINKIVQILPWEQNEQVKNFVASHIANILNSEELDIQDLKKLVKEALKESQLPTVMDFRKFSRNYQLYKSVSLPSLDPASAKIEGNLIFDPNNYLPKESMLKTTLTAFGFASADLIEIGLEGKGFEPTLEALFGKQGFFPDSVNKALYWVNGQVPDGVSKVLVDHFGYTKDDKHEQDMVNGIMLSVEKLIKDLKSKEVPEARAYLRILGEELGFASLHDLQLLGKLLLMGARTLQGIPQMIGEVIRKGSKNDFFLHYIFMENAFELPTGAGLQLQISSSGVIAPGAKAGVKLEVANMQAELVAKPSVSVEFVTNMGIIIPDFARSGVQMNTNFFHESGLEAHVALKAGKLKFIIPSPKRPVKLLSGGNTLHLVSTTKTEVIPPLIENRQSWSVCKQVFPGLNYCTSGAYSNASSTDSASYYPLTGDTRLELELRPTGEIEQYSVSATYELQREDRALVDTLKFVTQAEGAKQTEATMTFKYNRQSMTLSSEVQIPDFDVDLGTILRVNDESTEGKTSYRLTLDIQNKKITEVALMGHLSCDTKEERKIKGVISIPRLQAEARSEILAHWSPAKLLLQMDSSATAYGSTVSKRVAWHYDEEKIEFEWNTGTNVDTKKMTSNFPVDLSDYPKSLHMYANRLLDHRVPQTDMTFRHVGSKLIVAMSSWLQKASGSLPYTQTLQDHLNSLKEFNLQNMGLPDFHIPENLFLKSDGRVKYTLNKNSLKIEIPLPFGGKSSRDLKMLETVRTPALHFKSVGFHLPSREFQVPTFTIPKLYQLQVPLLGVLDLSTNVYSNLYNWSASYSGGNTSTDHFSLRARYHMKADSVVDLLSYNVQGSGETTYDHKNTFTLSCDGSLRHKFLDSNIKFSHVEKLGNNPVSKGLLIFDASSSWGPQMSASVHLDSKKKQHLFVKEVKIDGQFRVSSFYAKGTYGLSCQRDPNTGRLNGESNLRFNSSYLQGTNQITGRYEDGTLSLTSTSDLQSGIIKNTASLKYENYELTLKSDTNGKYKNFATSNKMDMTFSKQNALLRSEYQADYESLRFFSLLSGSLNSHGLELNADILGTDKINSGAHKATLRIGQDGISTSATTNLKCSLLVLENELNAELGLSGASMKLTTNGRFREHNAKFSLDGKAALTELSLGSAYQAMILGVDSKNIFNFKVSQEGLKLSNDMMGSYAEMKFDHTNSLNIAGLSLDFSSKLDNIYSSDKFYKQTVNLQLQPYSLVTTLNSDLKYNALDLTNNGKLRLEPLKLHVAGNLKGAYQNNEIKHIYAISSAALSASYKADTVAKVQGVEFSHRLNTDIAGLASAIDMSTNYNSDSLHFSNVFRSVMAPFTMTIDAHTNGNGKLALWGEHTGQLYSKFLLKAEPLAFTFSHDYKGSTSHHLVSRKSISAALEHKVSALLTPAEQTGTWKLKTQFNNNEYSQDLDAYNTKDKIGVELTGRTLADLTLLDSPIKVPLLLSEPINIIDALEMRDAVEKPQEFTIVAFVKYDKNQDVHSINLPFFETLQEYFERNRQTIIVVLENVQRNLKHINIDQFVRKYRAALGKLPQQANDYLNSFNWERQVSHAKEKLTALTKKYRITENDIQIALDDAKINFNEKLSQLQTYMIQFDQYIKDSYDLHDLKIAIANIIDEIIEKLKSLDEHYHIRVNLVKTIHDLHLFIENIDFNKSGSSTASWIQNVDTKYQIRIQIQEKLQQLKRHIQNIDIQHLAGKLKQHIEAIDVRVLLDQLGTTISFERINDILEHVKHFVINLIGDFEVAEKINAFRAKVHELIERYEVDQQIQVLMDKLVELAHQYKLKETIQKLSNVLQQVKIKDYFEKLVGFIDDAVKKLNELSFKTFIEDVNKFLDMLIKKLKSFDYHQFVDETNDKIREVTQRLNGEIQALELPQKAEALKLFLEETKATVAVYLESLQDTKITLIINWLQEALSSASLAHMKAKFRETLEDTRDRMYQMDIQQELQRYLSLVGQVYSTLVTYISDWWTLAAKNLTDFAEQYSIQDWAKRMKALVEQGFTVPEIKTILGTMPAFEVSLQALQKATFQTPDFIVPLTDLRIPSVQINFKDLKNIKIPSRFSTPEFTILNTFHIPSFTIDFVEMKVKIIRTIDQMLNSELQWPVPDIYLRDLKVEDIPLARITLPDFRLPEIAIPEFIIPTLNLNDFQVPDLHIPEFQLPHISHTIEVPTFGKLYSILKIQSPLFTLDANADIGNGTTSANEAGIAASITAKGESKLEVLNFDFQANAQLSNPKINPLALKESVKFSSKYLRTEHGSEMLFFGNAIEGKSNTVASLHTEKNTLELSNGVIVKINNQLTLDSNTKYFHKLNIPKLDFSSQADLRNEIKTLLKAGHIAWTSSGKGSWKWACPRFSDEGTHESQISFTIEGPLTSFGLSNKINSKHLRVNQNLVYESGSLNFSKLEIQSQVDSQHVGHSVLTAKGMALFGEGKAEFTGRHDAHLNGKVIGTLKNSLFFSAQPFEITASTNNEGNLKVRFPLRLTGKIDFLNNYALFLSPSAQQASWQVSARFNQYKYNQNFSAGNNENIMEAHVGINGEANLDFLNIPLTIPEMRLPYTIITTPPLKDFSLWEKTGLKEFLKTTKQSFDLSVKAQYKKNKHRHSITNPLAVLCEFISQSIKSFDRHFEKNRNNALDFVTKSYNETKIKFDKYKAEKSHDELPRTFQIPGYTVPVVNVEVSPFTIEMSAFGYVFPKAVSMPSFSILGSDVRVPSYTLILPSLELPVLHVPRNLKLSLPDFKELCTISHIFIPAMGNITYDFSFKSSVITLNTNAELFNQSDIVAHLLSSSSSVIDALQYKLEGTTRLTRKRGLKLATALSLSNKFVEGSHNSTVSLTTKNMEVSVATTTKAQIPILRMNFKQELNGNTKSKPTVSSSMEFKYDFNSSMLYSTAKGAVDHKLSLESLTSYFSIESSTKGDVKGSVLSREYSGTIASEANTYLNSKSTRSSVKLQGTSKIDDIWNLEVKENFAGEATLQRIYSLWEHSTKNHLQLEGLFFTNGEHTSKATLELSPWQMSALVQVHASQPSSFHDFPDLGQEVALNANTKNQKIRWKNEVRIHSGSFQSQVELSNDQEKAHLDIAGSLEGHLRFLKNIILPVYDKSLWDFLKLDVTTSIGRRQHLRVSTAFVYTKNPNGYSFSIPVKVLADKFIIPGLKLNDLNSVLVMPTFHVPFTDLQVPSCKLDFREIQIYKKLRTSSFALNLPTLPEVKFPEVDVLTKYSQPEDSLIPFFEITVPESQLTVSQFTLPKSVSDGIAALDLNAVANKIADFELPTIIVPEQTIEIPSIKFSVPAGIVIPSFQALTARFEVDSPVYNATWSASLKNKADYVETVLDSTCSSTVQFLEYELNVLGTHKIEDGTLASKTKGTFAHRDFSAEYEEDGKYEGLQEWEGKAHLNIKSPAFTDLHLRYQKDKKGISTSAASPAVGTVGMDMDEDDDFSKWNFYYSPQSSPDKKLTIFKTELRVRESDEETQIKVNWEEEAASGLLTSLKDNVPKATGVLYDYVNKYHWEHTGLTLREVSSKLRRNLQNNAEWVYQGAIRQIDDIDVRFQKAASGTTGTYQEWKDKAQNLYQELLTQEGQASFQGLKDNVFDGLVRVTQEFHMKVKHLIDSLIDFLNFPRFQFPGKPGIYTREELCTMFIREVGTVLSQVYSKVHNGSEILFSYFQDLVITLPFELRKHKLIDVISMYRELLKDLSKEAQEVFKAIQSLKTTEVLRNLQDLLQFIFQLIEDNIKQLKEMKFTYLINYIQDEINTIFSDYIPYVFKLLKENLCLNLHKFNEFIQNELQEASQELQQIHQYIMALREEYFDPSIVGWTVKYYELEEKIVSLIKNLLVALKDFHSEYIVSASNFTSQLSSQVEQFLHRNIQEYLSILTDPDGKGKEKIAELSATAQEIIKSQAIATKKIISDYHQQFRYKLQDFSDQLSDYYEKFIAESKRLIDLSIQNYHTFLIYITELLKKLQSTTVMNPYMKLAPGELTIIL
assay remarks: Anti-LDL aggregation assay, turbidimetry, aggregation induced by sphingomyelinase (SMase)
Format: biochemical
condition notes: peptide 10 μM (compound/ApoB-100 4.7/1), human LDL 1.44 mg/mL, 40 U/L Bacillus cereus SMase, 18 hours, 37° C., absorbance at 405 nm, Equation I
Where a SMILES comes first, the peptide text is derived from it. [ ]: non-standard residue; d: D form. ξ: configuration not given here. ξD = NC(CC(=O)O)C(=O)O
measured attribute: inhibition at 10 µM (%)
Expressed in %, but write only the number.

Summary for this compound, CC(=O)N[C@H](CC(=O)O)C(=O)N[C@H](CO)C(=O)N[C@H](CCC(=O)O)C(=O)N[C@H](CC(=O)O)C(=O)N[C@H](CC(N)=O)C(=O)N[C@H](CCCCN)C(=O)N[C@H](CC(=O)O)C(=O)N[C@H](CCC(=O)O)C(=O)N[C@H](CCC(=O)O)C(=O)N[C@H](C)C(N)=O [Example 19] (Ac-[dD][dS][dE][dD][dN][dK][dD][dE][dE][dA]-NH2) : inhibition at 10 µM is 87.5

inhibition at 10 µM recorded for this compound, CC(=O)N[C@H](CC(=O)O)C(=O)N[C@H](C)C(=O)N[C@H](CCC(=O)O)C(=O)N[C@H](CC(=O)O)C(=O)N[C@H](CC(N)=O)C(=O)N[C@H](C)C(=O)N[C@H](CC(=O)O)C(=O)N[C@H](CCC(=O)O)C(=O)N[C@H](CCC(=O)O)C(=O)N[C@H](C)C(N)=O [Example 17] (Ac-[dD][dA][dE][dD][dN][dA][dD][dE][dE][dA]-NH2) , is 95.2

Measured inhibition at 10 µM of CC(=O)N[C@H](CO)C(=O)N[C@H](CCC(=O)O)C(=O)N[C@H](CC(=O)O)C(=O)N[C@H](CC(N)=O)C(=O)N[C@H](CO)C(=O)N[C@H](CC(=O)O)C(=O)N[C@H](CCC(=O)O)C(=O)N[C@H](CCC(=O)O)C(=O)N[C@H](CC(N)=O)C(N)=O [Example 2] (Ac-[dS][dE][dD][dN][dS][dD][dE][dE][dN]-NH2) : 80.7

Lab note: CC(=O)N[C@H](CO)C(=O)N[C@H](CCC(=O)O)C(=O)N[C@H](CC(=O)O)C(=O)N[C@H](CC(N)=O)C(=O)N[C@H](CCCNC(=N)N)C(=O)N[C@H](CC(=O)O)C(=O)N[C@H](CCC(=O)O)C(=O)N[C@H](CCC(=O)O)C(=O)N[C@H](CC(C)C)C(N)=O [Example 7] (Ac-[dS][dE][dD][dN][dR][dD][dE][dE][dL]-NH2) gave inhibition at 10 µM of 44.7

Record summary for CC(=O)N[C@H](CO)C(=O)N[C@H](CCC(=O)O)C(=O)N[C@H](CC(=O)O)C(=O)N[C@H](CCC(N)=O)C(=O)N[C@H](C)C(=O)N[C@H](CCC(=O)O)C(=O)N[C@H](CCC(=O)O)C(=O)N[C@H](CCC(=O)O)C(=O)N[C@H](C)C(N)=O [Example 5] (Ac-[dS][dE][dD][dQ][dA][dE][dE][dE][dA]-NH2) : reported inhibition at 10 µM = 90.1

Measured inhibition at 10 µM of CC(=O)N[C@H](CC(=O)O)C(=O)N[C@H](CO)C(=O)N[C@H](CCC(=O)O)C(=O)N[C@H](CC(=O)O)C(=O)N[C@H](CC(N)=O)C(=O)N[C@H](CO)C(=O)N[C@H](CC(=O)O)C(=O)N[C@H](CCC(=O)O)C(=O)N[C@H](CCC(=O)O)C(=O)N[C@H](CC(N)=O)C(N)=O [Example 12] (Ac-[dD][dS][dE][dD][dN][dS][dD][dE][dE][dN]-NH2) : 93.3

Lookup result for CC(=O)N[C@H](CO)C(=O)N[C@H](CCC(=O)O)C(=O)N[C@H](CC(=O)O)C(=O)N[C@H](CC(N)=O)C(=O)N[C@H](CCCNC(=N)N)C(=O)N[C@H](CC(=O)O)C(=O)N[C@H](CCC(=O)O)C(=O)N[C@H](CCC(=O)O)C(=O)N[C@H](Cc1c[nH]c2ccccc12)C(N)=O [Example 8] (Ac-[dS][dE][dD][dN][dR][dD][dE][dE][dW]-NH2) ; measured inhibition at 10 µM: 64.2

// inhibition at 10 µM lookup, compound = CC(=O)N[C@H](CC(=O)O)C(=O)N[C@H](CC(N)=O)C(=O)N[C@H](CC(=O)O)C(=O)N[C@H](CO)C(=O)N[C@H](CCC(=O)O)C(=O)NC(CC(=O)O)C(=O)N[C@H](CC(N)=O)C(=O)N[C@H](CO)C(=O)N[C@H](CC(=O)O)C(=O)N[C@H](CCC(=O)O)C(=O)N[C@H](CCC(=O)O)C(=O)N[C@H](C)C(N)=O (some centres unmarked) [Example 13] (Ac-[dD][dN][dD][dS][dE][ξD][dN][dS][dD][dE][dE][dA]-NH2) , result: 95.5

For reference, reported inhibition at 10 µM for CC(=O)N[C@H](CO)C(=O)N[C@H](CCC(=O)O)C(=O)N[C@H](CC(=O)O)C(=O)N[C@H](CC(N)=O)C(=O)N[C@H](C)C(=O)N[C@H](CC(=O)O)C(=O)N[C@H](CCC(=O)O)C(=O)N[C@H](CCC(=O)O)C(=O)N[C@H](C)C(N)=O [Example 3] (Ac-[dS][dE][dD][dN][dA][dD][dE][dE][dA]-NH2) stands at 90

inhibition at 10 µM reading for CC(=O)N[C@H](CC(=O)O)C(=O)N[C@H](CO)C(=O)N[C@H](CCC(=O)O)C(=O)N[C@H](CC(=O)O)C(=O)N[C@H](CC(N)=O)C(=O)N[C@H](CO)C(=O)N[C@H](CC(=O)O)C(=O)N[C@H](CCC(=O)O)C(=O)N[C@H](CCC(=O)O)C(=O)N[C@H](C)C(N)=O [Example 15] (Ac-[dD][dS][dE][dD][dN][dS][dD][dE][dE][dA]-NH2) : 96

inhibition at 10 µM recorded for this compound, CC(=O)NCC(=O)N[C@H](CC(=O)O)C(=O)N[C@H](CC(N)=O)C(=O)N[C@H](CC(=O)O)C(=O)N[C@H](CO)C(=O)N[C@H](CCC(=O)O)C(=O)N[C@H](CC(=O)O)C(=O)N[C@H](CC(N)=O)C(=O)N[C@H](CO)C(=O)N[C@H](CC(=O)O)C(=O)N[C@H](CCC(=O)O)C(=O)N[C@H](CCC(=O)O)C(=O)N[C@H](CC(N)=O)C(N)=O [Example 1] (Ac-G[dD][dN][dD][dS][dE][dD][dN][dS][dD][dE][dE][dN]-NH2) , is 92.5
